The reported numbers originate from ChEMBL document CHEMBL5338760.

Molecular target: Melanocortin receptor 5 (Homo sapiens, UniProt P33032)
Sequence (P33032 whole entry): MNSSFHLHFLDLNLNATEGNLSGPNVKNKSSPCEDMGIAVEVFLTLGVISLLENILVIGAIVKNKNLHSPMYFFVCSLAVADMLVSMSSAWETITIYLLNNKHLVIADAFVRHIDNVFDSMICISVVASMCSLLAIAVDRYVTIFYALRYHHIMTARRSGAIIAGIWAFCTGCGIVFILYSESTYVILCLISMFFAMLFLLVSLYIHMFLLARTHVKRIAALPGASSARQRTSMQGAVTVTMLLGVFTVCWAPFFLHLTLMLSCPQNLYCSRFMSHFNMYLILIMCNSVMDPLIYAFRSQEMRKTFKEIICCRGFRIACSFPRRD
Test: Displacement of [I125] NDP-alpha-MSH from human MC5R stably overexpressing in HEK293 cells in presence of [I125] labeled NDP-alpha-MSH treated for 40 mins measured by microbeta 2 microplate counter analysis
Format: cell-based
quantity measured: IC50 (nM)

I: CCCC[C@H](NC(C)=N)C(=O)N[C@@H]1NCCCC[C@@H](C(N)=O)NC(=O)[C@H](Cc2c[nH]c3ccccc23)NC(=O)[C@H](CCCNC(=N)N)NC(=O)[C@H](Cc2ccccc2)NC(=O)[C@H](Cc2cnc[nH]2)NC1=O
II: CC(=O)N[C@@H](Cc1c[nH]cn1)C(=O)N[C@H](Cc1ccc(C(F)(F)F)cc1)C(=O)N[C@@H](CCCNC(=N)N)C(=O)N[C@H]1Cc2c([nH]c3ccccc23)CNC1=O
Incoming: Please indicate which entry, I or II , has the lower recorded IC50 value. Kindly state the label of the option you pick.
Outgoing: I
(I: 4 nM, II: 40 nM)
